So I've got a bunch of molecules here, and I need their GI50 values.
Test system: 786-0
Assay: NCI tumour cell line growth inhibition, 48 h
Activity calls are given as the source filed them. Cut-off read from the data, not from the text of the source: active = GI50 up to about 1.1 µM and inactive = higher.

Here is how some molecules turned out for GI50.
{"columns": ["MOLECULE", "GI50"],
 "data": [
  ["COc1ccc2[nH]cc(CCNC(=O)[C@H](Cc3ccccc3)NC(=O)[C@@H](NCC(F)(F)F)C(C)C)c2c1", "18.1 µM (inactive)"],
  ["COC(=O)CC(=O)C[P+](c1ccccc1)(c1ccccc1)c1ccccc1", "> 218 µM (inactive)"],
  ["COC(=O)c1c2c(cc3c1CCC3)CCC2", "80.7 µM (inactive)"],
  ["CCCCCCCCCCCCC(O)C1CCC(C(O)CCCCCCC(O)CCCCCCCC2=CC(C)OC2=O)O1 (stereo not given)", "32.9 µM (inactive)"],
  ["CCOC(=O)c1ccc(NCc2ccc3nc(OC)c(OC)nc3c2)cc1", "94.8 µM (inactive)"]
]}

I need GI50 for every entry listed below, if you could help.
1. CC1=C[C@@H]2Cc3occc3C(C)(C)[C@@H]2CC1
2. CO/N=C(\C)CCC#Cc1ccccc1C(=O)OC
3. O=C1c2ccccc2-c2c1c(-c1cccc(Br)c1)nc1ccc3ccccc3c21

Result block:
["19.4 µM (inactive)", "> 10 µM (inactive)", "> 100 µM (inactive)"]

I'm hoping you can list GI50 for every molecule here, please.
1. Cc1ccccc1Nc1nc2c(s1)C(=O)c1ccccc1C2=O
2. Cc1nc2c(o1)/C(=N\c1ccccc1)c1ccccc1/C2=N/c1ccccc1

Result block:
1. 2.95 µM (inactive)
2. 45.1 µM (inactive)
